Reported Absolute concentration in human milk values for the following compounds.
assay.text: Quantification of 1,8-cineole metabolites in human milk (SAFE, GC-MS, internal standard and matrix calibration) after oral intake of 100 mg 1,8-cineole
Assay type: in vivo
setup.conditions: sample F (no odour); parent ingested two capsules; single determination; values given with (<x) are approximations
Please respond with the number in µg/kg and leave the unit unwritten.

Record excerpt, results attached:
>>> value_observed("CC1(C)OC2(C)CCC1CC2O (stereo not drawn) [a2-hydroxy-1,8-cineole, α2-hydroxy-1,8-cineole]")
3.16
>>> value_observed("CC12CCC(C(=O)C1)C(C)(C)O2 (centres unmarked) [3-oxo-1,8-cineole]")
0.07
>>> value_observed("CC12CCC(O)(CC1)C(C)(C)O2 [4-hydroxy-1,8-cineole]")
3.62
>>> value_observed("CC12C=CC(CC1)C(C)(C)O2 (centres unmarked) [2,3-dehydro-1,8-cineole, 2,3-Dehydro-1,8-cineole]")
0.59

Measured Absolute concentration in human milk of CC12CCC(CC1=O)C(C)(C)O2 (centres unmarked) [2-oxo-1,8-cineole] : 2.71

---

assay.text: Quantification of 1,8-cineole metabolites in human milk (SAFE, GC-MS, internal standard and matrix calibration) after oral intake of 100 mg 1,8-cineole
Format: in vivo
setup.conditions: sample C (no odour; very weak odour not caused by 1,8-cineole); oral 100 mg 1,8-cineole; single determination; values given with (<x) are approximations
quantity.measured: Absolute concentration in human milk (µg/kg)
Please respond with the number in µg/kg and leave the unit unwritten.

Record excerpt, results attached:
>>> value_observed("CC1(C)OC2(C)CCC1CC2O (stereo not drawn) [a2-hydroxy-1,8-cineole, α2-hydroxy-1,8-cineole]")
7.68
>>> value_observed("CC1(C)OC2(C)CCC1CC2O (stereo not drawn) [b2-hydroxy-1,8-cineole, β2-hydroxy-1,8-cineole]")
0.33
>>> value_observed("CC12C=CC(CC1)C(C)(C)O2 (centres unmarked) [2,3-dehydro-1,8-cineole, 2,3-Dehydro-1,8-cineole]")
0.73
>>> value_observed("CC12CCC(C(=O)C1)C(C)(C)O2 (centres unmarked) [3-oxo-1,8-cineole]")
0.14

Now consider a different molecule.
Measured Absolute concentration in human milk of CC12CCC(C(O)C1)C(C)(C)O2 (stereo not drawn) [a3-hydroxy-1,8-cineole, α3-Hydroxy-1,8-cineole] : 0.05

---

Reported Absolute concentration in human milk values for the following compounds.
assay.text: Quantification of 1,8-cineole metabolites in human milk (SAFE, GC-MS, internal standard and matrix calibration) after oral intake of 100 mg 1,8-cineole
Type: in vivo
setup.conditions: sample B-2a (no odour); oral 100 mg 1,8-cineole; single determination
Please respond with the number in µg/kg and leave the unit unwritten.

Record excerpt, results attached:
>>> value_observed("CC1(C)OC2(C)CCC1CC2O (stereo not drawn) [a2-hydroxy-1,8-cineole, α2-hydroxy-1,8-cineole]")
0.61
>>> value_observed("CC1(C)OC2(CO)CCC1CC2 [7-hydroxy-1,8-cineole]")
0.21
>>> value_observed("CC12C=CC(CC1)C(C)(C)O2 (stereo not shown) [2,3-dehydro-1,8-cineole, 2,3-Dehydro-1,8-cineole]")
0.07

Now consider a different compound.
Measured Absolute concentration in human milk of CC12CCC(CC1)C(C)(CO)O2 (stereo not shown) [9-hydroxy-1,8-cineole] : 0.18

---

assay.text: Quantification of 1,8-cineole metabolites in human milk (SAFE, GC-MS, internal standard and matrix calibration) after oral intake of 100 mg 1,8-cineole
Assay type: in vivo
setup.conditions: sample G (odour yes); oral 100 mg 1,8-cineole; single determination; values given with (<x) are approximations
Could you mark each record fulfilled if its Absolute concentration in human milk falls strictly under 3 µg/kg, and not fulfilled if it equals or exceeds it?

Past entries and their recorded results:
>>> label_class("CC12CCC(CC1)C(C)(CO)O2 (stereo not drawn) [9-hydroxy-1,8-cineole]")
"fulfilled"
>>> label_class("CC1(C)OC2(CO)CCC1CC2 [7-hydroxy-1,8-cineole]")
"fulfilled"
>>> label_class("CC1(C)OC2(C)CCC1CC2O (stereo not drawn) [a2-hydroxy-1,8-cineole, α2-hydroxy-1,8-cineole]")
"not fulfilled"
>>> label_class("CC12CCC(C(O)C1)C(C)(C)O2 (stereo not drawn) [a3-hydroxy-1,8-cineole, α3-Hydroxy-1,8-cineole]")
"fulfilled"

stdin: API: query returns whether the compound falls strictly under 3 µg/kg in Absolute concentration in human milk. Query: CC12CCC(O)(CC1)C(C)(C)O2 [4-hydroxy-1,8-cineole]
stdout: not fulfilled

stdin: API: query returns whether the compound falls strictly under 3 µg/kg in Absolute concentration in human milk. Query: CC12CCC(C(=O)C1)C(C)(C)O2 (stereo not drawn)
stdout: not fulfilled

stdin: API: query returns whether the compound falls strictly under 3 µg/kg in Absolute concentration in human milk. Query: CC1(C)OC2(C)CCC1CC2O (stereo not drawn) [b2-hydroxy-1,8-cineole, β2-hydroxy-1,8-cineole]
stdout: not fulfilled

stdin: API: query returns whether the compound falls strictly under 3 µg/kg in Absolute concentration in human milk. Query: CC12C=CC(CC1)C(C)(C)O2 (stereo not drawn) [2,3-dehydro-1,8-cineole, 2,3-Dehydro-1,8-cineole]
stdout: not fulfilled

stdin: API: query returns whether the compound falls strictly under 3 µg/kg in Absolute concentration in human milk. Query: CC1(C)OC2(C)CCC1C1OC12 (stereo not drawn)
stdout: not fulfilled

---

assay.text: Quantification of 1,8-cineole metabolites in human milk (SAFE, GC-MS, internal standard and matrix calibration) after oral intake of 100 mg 1,8-cineole
Assay type: in vivo
setup.conditions: sample D-1 (no odour); oral 100 mg 1,8-cineole; single determination; values given with (<x) are approximations
Lab note: compare Absolute concentration in human milk against 0.8 µg/kg. Equal or greater, write 1. Smaller, write -1.

>>> label_class("CC12CCC(C(O)C1)C(C)(C)O2 (stereo not drawn) [a3-hydroxy-1,8-cineole, α3-Hydroxy-1,8-cineole]")
-1
>>> label_class("CC1(C)OC2(C)CCC1CC2O (stereo not drawn) [a2-hydroxy-1,8-cineole, α2-hydroxy-1,8-cineole]")
1
>>> label_class("CC1(C)OC2(C)CCC1C1OC12 (stereo not shown)")
1

stdin: Test whether the compound CC12CCC(C(=O)C1)C(C)(C)O2 (stereo not shown) records Absolute concentration in human milk of 0.8 µg/kg or higher.
stdout: -1

stdin: Test whether the compound CC12C=CC(CC1)C(C)(C)O2 (stereo not shown) [2,3-dehydro-1,8-cineole, 2,3-Dehydro-1,8-cineole] records Absolute concentration in human milk of 0.8 µg/kg or higher.
stdout: -1

stdin: Test whether the compound CC1(C)OC2(C)CCC1CC2O (stereo not drawn) [b2-hydroxy-1,8-cineole, β2-hydroxy-1,8-cineole] records Absolute concentration in human milk of 0.8 µg/kg or higher.
stdout: 1

stdin: Test whether the compound CC12CCC(O)(CC1)C(C)(C)O2 [4-hydroxy-1,8-cineole] records Absolute concentration in human milk of 0.8 µg/kg or higher.
stdout: 1

---

assay.text: Quantification of 1,8-cineole metabolites in human milk (SAFE, GC-MS, internal standard and matrix calibration) after oral intake of 100 mg 1,8-cineole
Type: in vivo
setup.conditions: sample B-2c (no odour); oral 100 mg 1,8-cineole; single determination
quantity.measured: Absolute concentration in human milk (µg/kg)
Please respond with the number in µg/kg and leave the unit unwritten.

Measured Absolute concentration in human milk of CC1(C)OC2(C)CCC1CC2O (stereo not drawn) [a2-hydroxy-1,8-cineole, α2-hydroxy-1,8-cineole] : 29.25

Measured Absolute concentration in human milk of CC1(C)OC2(C)CCC1C1OC12 (stereo not shown) : 0.66

Measured Absolute concentration in human milk of CC12CCC(CC1)C(C)(CO)O2 (stereo not shown) [9-hydroxy-1,8-cineole] : 0.15

Measured Absolute concentration in human milk of CC12C=CC(CC1)C(C)(C)O2 (stereo not shown) [2,3-dehydro-1,8-cineole, 2,3-Dehydro-1,8-cineole] : 0.57

Measured Absolute concentration in human milk of CC12CCC(C(O)C1)C(C)(C)O2 (stereo not drawn) [a3-hydroxy-1,8-cineole, α3-Hydroxy-1,8-cineole] : 0.05

Measured Absolute concentration in human milk of CC12CCC(C(=O)C1)C(C)(C)O2 (stereo not shown) : 0.68

Measured Absolute concentration in human milk of CC1(C)OC2(CO)CCC1CC2 [7-hydroxy-1,8-cineole] : 0.18

Measured Absolute concentration in human milk of CC12CCC(CC1=O)C(C)(C)O2 (stereo not shown) : 0.07

Measured Absolute concentration in human milk of CC12CCC(O)(CC1)C(C)(C)O2 [4-hydroxy-1,8-cineole] : 2.32

Measured Absolute concentration in human milk of CC1(C)OC2(C)CCC1CC2O (stereo not drawn) [b2-hydroxy-1,8-cineole, β2-hydroxy-1,8-cineole] : 1.71

---

assay.text: Quantification of 1,8-cineole metabolites in human milk (SAFE, GC-MS, internal standard and matrix calibration) after oral intake of 100 mg 1,8-cineole
Type: in vivo
setup.conditions: sample B-1 (odour yes); oral 100 mg 1,8-cineole; single determination; values given with (<x) are approximations
quantity.measured: Absolute concentration in human milk
Number first, unit second: that is the form wanted.

>>> value_observed("CC12CCC(C(O)C1)C(C)(C)O2 (stereo not drawn) [a3-hydroxy-1,8-cineole, α3-Hydroxy-1,8-cineole]")
"1.06 µg/kg"
>>> value_observed("CC12CCC(CC1=O)C(C)(C)O2 (stereo not shown)")
"0.91 µg/kg"

Measured Absolute concentration in human milk of CC12CCC(CC1)C(C)(CO)O2 (stereo not shown) [9-hydroxy-1,8-cineole] : 0.87 µg/kg

Measured Absolute concentration in human milk of CC12C=CC(CC1)C(C)(C)O2 (stereo not shown) [2,3-dehydro-1,8-cineole, 2,3-Dehydro-1,8-cineole] : 13.65 µg/kg

Measured Absolute concentration in human milk of CC1(C)OC2(C)CCC1CC2O (stereo not drawn) [b2-hydroxy-1,8-cineole, β2-hydroxy-1,8-cineole] : 6.72 µg/kg

Source listed as paper PMC3901259.
